test target: CDK9/Cyclin T1 complex (Homo sapiens)
Sequence (P50750 whole entry, species assumed): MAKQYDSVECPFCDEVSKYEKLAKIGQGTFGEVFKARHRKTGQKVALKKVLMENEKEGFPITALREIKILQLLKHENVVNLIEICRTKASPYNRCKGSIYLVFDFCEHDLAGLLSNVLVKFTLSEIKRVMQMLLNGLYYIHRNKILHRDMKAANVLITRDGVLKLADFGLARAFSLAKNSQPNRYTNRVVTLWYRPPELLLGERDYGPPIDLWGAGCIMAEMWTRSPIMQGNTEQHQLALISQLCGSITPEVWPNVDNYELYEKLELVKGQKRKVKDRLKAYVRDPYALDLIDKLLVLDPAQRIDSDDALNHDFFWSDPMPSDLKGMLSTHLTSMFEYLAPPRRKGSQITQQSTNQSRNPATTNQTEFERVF
Sequence (O60563 whole entry partner, species assumed): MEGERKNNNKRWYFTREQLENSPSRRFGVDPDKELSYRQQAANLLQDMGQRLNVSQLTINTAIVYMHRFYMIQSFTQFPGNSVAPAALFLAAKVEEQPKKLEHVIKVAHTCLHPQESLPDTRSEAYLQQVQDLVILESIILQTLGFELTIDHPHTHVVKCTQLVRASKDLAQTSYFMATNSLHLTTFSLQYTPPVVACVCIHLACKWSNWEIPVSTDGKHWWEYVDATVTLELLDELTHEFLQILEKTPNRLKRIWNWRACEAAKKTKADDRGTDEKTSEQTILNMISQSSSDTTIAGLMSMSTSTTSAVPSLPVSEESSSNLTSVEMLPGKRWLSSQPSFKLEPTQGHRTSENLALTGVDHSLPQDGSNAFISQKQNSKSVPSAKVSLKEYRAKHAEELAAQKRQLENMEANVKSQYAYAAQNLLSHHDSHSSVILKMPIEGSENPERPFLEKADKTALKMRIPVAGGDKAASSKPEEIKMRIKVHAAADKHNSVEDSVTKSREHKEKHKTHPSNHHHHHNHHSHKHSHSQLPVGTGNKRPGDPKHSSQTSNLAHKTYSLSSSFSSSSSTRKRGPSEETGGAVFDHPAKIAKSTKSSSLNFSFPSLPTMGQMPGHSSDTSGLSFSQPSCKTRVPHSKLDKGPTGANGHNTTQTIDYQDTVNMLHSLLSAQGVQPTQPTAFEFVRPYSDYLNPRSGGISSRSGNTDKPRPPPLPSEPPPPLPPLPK
procedure text: CDK9 inhibition assay (Caliper/LabChip EZ Reader kinase assay)
Assay type: biochemical
conditions: Table 1; CDK9/Cyclin T1 8 nM, ATP 2 mM, 15 min at 27° C.; listed as 107
pIC50: −log10 of the molar value.
measurement kind: pIC50

**Q:** May I ask what pIC50 has been recorded for `N#C[C@@H]1CCN(C(=O)c2ccc3c(-c4nc(N[C@H]5CCCNC5)ncc4C(F)(F)F)c[nH]c3c2)C1` ?
**A:** 5.30 to 6.70

----------
test target: CDK9/Cyclin T1 complex (Homo sapiens)
procedure text: CDK9 inhibition assay (Caliper/LabChip EZ Reader kinase assay)
Type: biochemical
conditions: Table 1; CDK9/Cyclin T1 8 nM, ATP 2 mM, 15 min at 27° C.; listed as 108
pIC50: −log10 of the molar value.
measurement kind: pIC50

**Q:** May I ask what pIC50 has been recorded for `N#C[C@H]1CCN(C(=O)c2ccc3c(-c4nc(N[C@H]5CCCNC5)ncc4C(F)(F)F)c[nH]c3c2)C1` ?
**A:** 5.30 to 6.70

----------
test target: CDK12 (aa686-1082)/Cyclin K complex (Homo sapiens)
Construct: CDK12 (aa686-1082)/Cyclin K complex
Sequence (Q9NYV4 686-1082, species assumed): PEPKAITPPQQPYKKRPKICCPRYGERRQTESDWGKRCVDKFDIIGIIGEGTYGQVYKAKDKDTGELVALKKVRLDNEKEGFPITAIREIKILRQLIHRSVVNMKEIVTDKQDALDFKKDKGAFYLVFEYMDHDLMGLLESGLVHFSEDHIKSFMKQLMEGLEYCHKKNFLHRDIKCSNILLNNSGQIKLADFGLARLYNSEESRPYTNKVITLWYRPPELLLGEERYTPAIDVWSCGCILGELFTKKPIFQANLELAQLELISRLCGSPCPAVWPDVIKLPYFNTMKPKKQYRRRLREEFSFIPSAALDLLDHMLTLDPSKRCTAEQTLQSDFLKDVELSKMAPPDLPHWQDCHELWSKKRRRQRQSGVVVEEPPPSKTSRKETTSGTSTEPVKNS
Sequence (O75909 whole entry partner, species assumed, the tested form may be a part): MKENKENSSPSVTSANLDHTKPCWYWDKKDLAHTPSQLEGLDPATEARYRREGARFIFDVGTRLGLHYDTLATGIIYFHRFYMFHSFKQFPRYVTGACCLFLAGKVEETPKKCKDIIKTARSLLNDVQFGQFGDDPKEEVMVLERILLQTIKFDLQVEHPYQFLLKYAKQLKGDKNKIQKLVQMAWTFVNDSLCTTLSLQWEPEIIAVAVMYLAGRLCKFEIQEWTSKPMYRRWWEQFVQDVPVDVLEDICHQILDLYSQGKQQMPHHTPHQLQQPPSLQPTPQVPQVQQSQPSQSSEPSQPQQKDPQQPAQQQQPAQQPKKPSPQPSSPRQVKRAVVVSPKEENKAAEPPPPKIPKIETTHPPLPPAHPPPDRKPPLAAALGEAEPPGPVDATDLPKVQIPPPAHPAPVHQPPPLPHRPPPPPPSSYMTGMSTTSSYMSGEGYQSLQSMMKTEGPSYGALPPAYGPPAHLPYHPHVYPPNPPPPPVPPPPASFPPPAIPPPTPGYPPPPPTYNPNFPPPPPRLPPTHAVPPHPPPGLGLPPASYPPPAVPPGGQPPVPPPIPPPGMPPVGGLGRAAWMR
procedure text: CDK12 inhibition assay (Caliper/LabChip EZ Reader kinase assay)
Format: biochemical
conditions: Table 1; CDK12 (aa686-1082)/Cyclin K 50 nM, ATP 2 mM, 3 hr at 27° C.
pIC50: −log10 of the molar value.
measurement kind: pIC50

**Q:** May I ask what pIC50 has been recorded for `C[C@H]1CCNC[C@H]1Nc1ncc(C(F)(F)F)c(-c2c[nH]c3ccccc23)n1` ?
**A:** < 5.30

**Q:** May I ask what pIC50 has been recorded for `FC(F)(F)c1cnc(N[C@H]2CCCNC2)nc1-c1c[nH]c2cc(-c3ccnc4ccccc34)ccc12` ?
**A:** 5.30 to 6.70

**Q:** May I ask what pIC50 has been recorded for `Clc1cnc(N[C@@H]2CN3CCC2CC3)nc1-c1c[nH]c2ccccc12` ?
**A:** < 5.30

**Q:** May I ask what pIC50 has been recorded for `CCN1C[C@@H](Nc2ncc(C(F)(F)F)c(-c3c[nH]c4cc(S(C)(=O)=O)ccc34)n2)CC(C)(C)C1` ?
**A:** < 5.30

**Q:** May I ask what pIC50 has been recorded for `CC(=O)c1cnc(N[C@H]2CCCNC2)nc1-c1c[nH]c2ccccc12` ?
**A:** 5.30 to 6.70

**Q:** May I ask what pIC50 has been recorded for `Cn1cc(-c2ccc3c(-c4nc(N[C@H]5CCCNC5)ncc4C(F)(F)F)c[nH]c3c2)cc1C#N` ?
**A:** 5.30 to 6.70

**Q:** May I ask what pIC50 has been recorded for `CCc1cnc(N[C@H]2CCCNC2)nc1-c1c[nH]c2cc(C#N)ccc12` ?
**A:** < 5.30

**Q:** May I ask what pIC50 has been recorded for `O=C(c1ccc2c(-c3nc(N[C@H]4CCCNC4)ncc3C(F)(F)F)c[nH]c2c1)N1CCCC1` ?
**A:** 5.30 to 6.70

----------
Can you tell me pIC50 for the items I'm about to list?
test target: CDK2/Cyclin E1 complex (Homo sapiens)
procedure text: CDK2 inhibition assay (Caliper/LabChip EZ Reader kinase assay)
Format: biochemical
conditions: Table 1; CDK2/Cyclin E1 0.5 nM, ATP 2 mM, 35 min at 27° C.
pIC50: −log10 of the molar value.

**Q:** May I ask what pIC50 has been recorded for `NC(=O)c1cccc(-c2ccc3c(-c4nc(N[C@H]5CCCNC5)ncc4C(F)(F)F)c[nH]c3c2)c1` ?
**A:** 5.30 to 6.70

**Q:** May I ask what pIC50 has been recorded for `C=Cc1cnc(N[C@H]2CCCNC2)nc1-c1c[nH]c2ccccc12` ?
**A:** 5.30 to 6.70

**Q:** May I ask what pIC50 has been recorded for `C#Cc1cnc(N[C@H]2CCCNC2)nc1-c1cn(C)c2ccccc12` ?
**A:** < 5.30

**Q:** May I ask what pIC50 has been recorded for `CCc1cnc(N[C@H]2CCCNC2)nc1-c1n[nH]c2c(F)cccc12` ?
**A:** 5.30 to 6.70

**Q:** May I ask what pIC50 has been recorded for `O=C([C@H]1CC[C@H](Nc2ncc(C(F)(F)F)c(-c3c[nH]c4ccccc34)n2)CN1)N1CCCC1` ?
**A:** 5.30 to 6.70

**Q:** May I ask what pIC50 has been recorded for `FC(F)(F)c1cnc(N[C@H]2CCCNC2)nc1-c1c[nH]c2cc(-c3ccnc4ccccc34)ccc12` ?
**A:** < 5.30

**Q:** May I ask what pIC50 has been recorded for `O=C(c1ccc2c(-c3nc(N[C@H]4CCCNC4)ncc3C(F)(F)F)c[nH]c2c1)N1CCCC1` ?
**A:** 5.30 to 6.70

**Q:** May I ask what pIC50 has been recorded for `O=c1[nH]cc(-c2ccc3c(-c4nc(N[C@H]5CCCNC5)ncc4C(F)(F)F)c[nH]c3c2)c(=O)[nH]1` ?
**A:** < 5.30

**Q:** May I ask what pIC50 has been recorded for `CNC(=O)c1ccc2c(-c3nc(N[C@H]4CCCNC4)ncc3C(F)(F)F)c[nH]c2n1` ?
**A:** 5.30 to 6.70

**Q:** May I ask what pIC50 has been recorded for CCOP(C)(=O)c1cccc2c(-c3nc(N[C@H]4CCCNC4)ncc3C(F)(F)F)c[nH]c12 (stereo partly drawn) ?
**A:** 5.30 to 6.70

**Q:** May I ask what pIC50 has been recorded for `Cn1cc(-c2ccc3c(-c4nc(N[C@H]5CCCNC5)ncc4C(F)(F)F)c[nH]c3c2)cc1C#N` ?
**A:** 5.30 to 6.70

**Q:** May I ask what pIC50 has been recorded for `CNC(=O)[C@@H]1CNC[C@@H](Nc2ncc(C(F)(F)F)c(-c3c[nH]c4ccccc34)n2)C1` ?
**A:** 5.30 to 6.70

**Q:** May I ask what pIC50 has been recorded for `CCC(=O)N[C@H]1CNC[C@@H](Nc2ncc(C(F)(F)F)c(-c3c[nH]c4c(S(C)(=O)=O)cccc34)n2)C1` ?
**A:** < 5.30

**Q:** May I ask what pIC50 has been recorded for `Oc1ncccc1-c1ccc2c(-c3nc(N[C@H]4CCCNC4)ncc3C(F)(F)F)c[nH]c2c1` ?
**A:** 5.30 to 6.70

**Q:** May I ask what pIC50 has been recorded for `CCc1cnc(N[C@H]2CCCNC2)nc1-c1c[nH]c2c(F)c(C#N)ccc12` ?
**A:** < 5.30

This collection of values is drawn from patent US20240360165A1.
